assayed system: KAT7+JADE1+EAF6+ING5 4 protein complex (Homo sapiens (Human))
assay overview: KAT7 JADE1 assay (SAMDI-MS acetylation of H3 1-21 peptide)
Type: biochemical
study conditions: Morrison equation fit; replicate number in parentheses; read-out: KAT7 JADE1 Ki (nM) (replicate number)
Ki under 50 nM gets Y, anything at or over 50 nM gets N.

Field: example entries. Status: answers known.
[[record]]
compound = "CCc1nc(Nc2cc3onc(NS(=O)(=O)c4c(OC)cccc4OC)c3cc2OC)n[nH]1"
qualitative_label = "N"

[[record]]
compound = "COc1cc2c(NS(=O)(=O)c3c(OC)cccc3OC)noc2cc1Nc1c(C(N)=O)c(C)nn1C"
qualitative_label = "N"

[[record]]
compound = "COc1cc2c(NS(=O)(=O)c3c(OC)cc(C(C)N4CC(F)C4)cc3OC)noc2cc1Nc1cc(C2CC2)[nH]n1 (single isomer, unassigned) [Example 209]"
qualitative_label = "Y"

[[record]]
compound = "COc1cc2c(NS(=O)(=O)c3c(OC)cc(-c4ccn(C)n4)cc3OC)noc2cc1Nc1cc(C2CC2)n[nH]1"
qualitative_label = "Y"

[[record]]
compound = "COc1cc2c(NS(=O)(=O)c3c(OC)cccc3OC)noc2cc1Nc1cc(C(=O)O)n[nH]1"
qualitative_label = "N"

[[record]]
compound = "CCOc1cc(C)c(F)cc1S(=O)(=O)Nc1noc2cc(Nc3cc[nH]n3)c(OC)cc12"
qualitative_label = "N"


Confirm or reject: Ki of COc1cccc(OC)c1S(=O)(=O)Nc1noc2cc(Nc3ncccn3)cc(OC)c12 lies strictly below 50 nM
N

Further, for COc1cc2c(NS(=O)(=O)c3c(OC)cc(C4CCCCO4)cc3OC)noc2cc1Nc1cc(C2CC2)n[nH]1 (single isomer, unassigned) [Example 142] ?
Y

Further, for COc1cc2c(NS(=O)(=O)c3c(OC)cc(C4CN(C)CC(F)(F)C4)cc3OC)noc2cc1Nc1cc(C2CC2)[nH]n1 (single isomer, unassigned) [Example 229] ?
Y

* * *

assayed system: KAT6A Full length enzyme (Homo sapiens (Human), UniProt Q92794)
Sequence (Q92794 other isoform, or with tags, fused parts or gaps): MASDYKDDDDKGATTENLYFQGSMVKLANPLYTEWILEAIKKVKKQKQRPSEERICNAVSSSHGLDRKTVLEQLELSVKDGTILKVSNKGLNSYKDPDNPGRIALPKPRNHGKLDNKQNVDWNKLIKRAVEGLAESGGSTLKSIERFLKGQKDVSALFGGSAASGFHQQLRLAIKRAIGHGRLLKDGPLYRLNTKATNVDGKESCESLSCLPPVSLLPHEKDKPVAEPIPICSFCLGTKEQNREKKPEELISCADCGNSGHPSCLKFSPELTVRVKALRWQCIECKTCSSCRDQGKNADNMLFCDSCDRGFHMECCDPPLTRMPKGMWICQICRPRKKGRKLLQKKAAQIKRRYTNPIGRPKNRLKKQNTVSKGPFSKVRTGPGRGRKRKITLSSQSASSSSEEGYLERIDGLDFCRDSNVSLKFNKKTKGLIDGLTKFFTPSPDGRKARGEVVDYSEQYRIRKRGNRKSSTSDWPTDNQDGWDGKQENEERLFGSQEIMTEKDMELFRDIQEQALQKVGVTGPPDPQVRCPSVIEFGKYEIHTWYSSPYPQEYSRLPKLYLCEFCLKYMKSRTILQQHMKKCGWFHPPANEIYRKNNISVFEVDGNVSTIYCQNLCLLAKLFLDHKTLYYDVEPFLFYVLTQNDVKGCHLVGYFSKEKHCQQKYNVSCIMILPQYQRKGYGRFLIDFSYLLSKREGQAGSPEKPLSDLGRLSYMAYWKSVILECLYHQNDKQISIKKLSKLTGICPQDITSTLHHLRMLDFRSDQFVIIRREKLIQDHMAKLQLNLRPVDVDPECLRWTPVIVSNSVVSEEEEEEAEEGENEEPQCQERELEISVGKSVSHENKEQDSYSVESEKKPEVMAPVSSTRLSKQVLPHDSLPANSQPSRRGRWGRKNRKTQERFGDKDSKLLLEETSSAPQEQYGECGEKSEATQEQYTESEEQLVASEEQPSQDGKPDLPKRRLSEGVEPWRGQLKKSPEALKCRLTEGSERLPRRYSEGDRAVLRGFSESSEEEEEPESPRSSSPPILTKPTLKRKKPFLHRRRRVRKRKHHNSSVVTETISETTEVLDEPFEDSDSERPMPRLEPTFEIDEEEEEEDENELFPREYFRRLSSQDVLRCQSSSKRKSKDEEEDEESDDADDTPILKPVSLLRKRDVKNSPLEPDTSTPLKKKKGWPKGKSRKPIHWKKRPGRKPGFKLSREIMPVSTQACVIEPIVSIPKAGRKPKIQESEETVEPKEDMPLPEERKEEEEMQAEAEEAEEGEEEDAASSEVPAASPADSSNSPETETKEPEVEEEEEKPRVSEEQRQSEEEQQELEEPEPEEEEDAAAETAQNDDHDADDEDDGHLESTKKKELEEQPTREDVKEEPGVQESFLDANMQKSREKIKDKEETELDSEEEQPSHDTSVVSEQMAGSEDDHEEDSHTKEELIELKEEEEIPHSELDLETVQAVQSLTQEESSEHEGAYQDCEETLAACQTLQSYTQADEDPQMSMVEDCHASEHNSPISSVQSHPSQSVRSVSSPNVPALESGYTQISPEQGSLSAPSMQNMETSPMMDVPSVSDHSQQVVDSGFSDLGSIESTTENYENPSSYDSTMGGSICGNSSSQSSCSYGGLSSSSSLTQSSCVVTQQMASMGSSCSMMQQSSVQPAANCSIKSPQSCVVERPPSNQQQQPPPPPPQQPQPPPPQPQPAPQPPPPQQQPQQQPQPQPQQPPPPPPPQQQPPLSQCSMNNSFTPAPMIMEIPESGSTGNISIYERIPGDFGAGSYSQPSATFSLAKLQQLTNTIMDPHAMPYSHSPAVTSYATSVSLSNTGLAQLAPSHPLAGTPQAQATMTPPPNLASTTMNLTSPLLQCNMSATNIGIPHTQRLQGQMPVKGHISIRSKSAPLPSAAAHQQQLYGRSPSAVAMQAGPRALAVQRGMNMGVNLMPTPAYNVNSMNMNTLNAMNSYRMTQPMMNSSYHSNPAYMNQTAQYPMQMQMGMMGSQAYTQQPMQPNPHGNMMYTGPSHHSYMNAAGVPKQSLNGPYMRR
assay overview: KAT6A assay (SAMDI-MS acetylation of H3 1-21 peptide)
Format: biochemical
study conditions: Morrison equation fit; replicate number in parentheses; read-out: KAT6A Ki (nM) (replicate number)
Ki under 1 nM gets class 1, anything at or over 1 nM gets class 0.

Field: example entries. Status: answers known.
[[record]]
molecule = "COc1cc2c(NS(=O)(=O)c3c(OC)cccc3OC)noc2cc1Nc1c(C(N)=O)c(C)nn1C"
qualitative_label = "class 0"

[[record]]
molecule = "COc1cc2c(NS(=O)(=O)c3cc(C(C)C)c(C)cc3OC)noc2cc1Nc1cc[nH]n1"
qualitative_label = "class 1"

[[record]]
molecule = "CCn1ccc(Nc2cc3onc(NS(=O)(=O)c4c(OC)cccc4OC)c3cc2OC)n1"
qualitative_label = "class 0"

[[record]]
molecule = "COc1cc2c(NS(=O)(=O)c3c(OC)cccc3OC)noc2cc1Nc1cc(C)nn1C"
qualitative_label = "class 0"

[[record]]
molecule = "COc1cc2c(NS(=O)(=O)c3c(OC)cc(C4CCCN(C)C4)cc3OC)noc2cc1Nc1cc(C2CC2)n[nH]1 (single isomer, unassigned) [Example 150]"
qualitative_label = "class 1"


Confirm or reject: Ki of COc1cc2c(NS(=O)(=O)c3c(OC)cc(C4CCCN(CC(F)F)C4)cc3OC)noc2cc1Nc1cc(C2CC2)n[nH]1 (single isomer, unassigned) [Example 167] lies strictly below 1 nM
class 1

Further, for COc1cc2c(NS(=O)(=O)c3cc4c(cc3OC)CCCC4)noc2cc1Nc1cc(C)n[nH]1 ?
class 1

Further, for COc1cc2c(NS(=O)(=O)c3ccc(Cl)cc3OC)noc2cc1Nc1cc[nH]n1 ?
class 0

Further, for COc1cc2c(NS(=O)(=O)c3c(OC)cc(C4CCCN4CC(F)F)cc3OC)noc2cc1Nc1cc(C2CC2)n[nH]1 (single isomer, unassigned) [Example 166] ?
class 0
